B1: Osa-1-4 twister ribozyme (parent)
chain: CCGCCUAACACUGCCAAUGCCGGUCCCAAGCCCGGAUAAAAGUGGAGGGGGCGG

- Variants of: B1
- Test: self-cleavage, relative activity (ratio to wild type); higher = more cleavage; co-transcriptional
# cutoff 0.4 applies to self-cleavage; >= gives y, < gives n

{"columns": ["Variant name", "Assigned label"],
 "data": [
  ["C26U U18G", "y"],
  ["C33G G30C", "n"],
  ["G54C U18G", "y"],
  ["C14A C25A", "n"],
  ["A36G U24C", "y"],
  ["C15U U37C", "n"],
  ["G35A U24C", "n"],
  ["C33A U12A", "n"],
  ["C14U G42C", "n"],
  ["G49U G54U", "n"],
  ["G44A U18A", "y"]
]}

// provenance: the RNAGym collection of RNA variant scans (doi:10.1002/anie.201605470)
